Target: human TLR7 (Homo sapiens)
Sequence (Q9NYK1 27-1049): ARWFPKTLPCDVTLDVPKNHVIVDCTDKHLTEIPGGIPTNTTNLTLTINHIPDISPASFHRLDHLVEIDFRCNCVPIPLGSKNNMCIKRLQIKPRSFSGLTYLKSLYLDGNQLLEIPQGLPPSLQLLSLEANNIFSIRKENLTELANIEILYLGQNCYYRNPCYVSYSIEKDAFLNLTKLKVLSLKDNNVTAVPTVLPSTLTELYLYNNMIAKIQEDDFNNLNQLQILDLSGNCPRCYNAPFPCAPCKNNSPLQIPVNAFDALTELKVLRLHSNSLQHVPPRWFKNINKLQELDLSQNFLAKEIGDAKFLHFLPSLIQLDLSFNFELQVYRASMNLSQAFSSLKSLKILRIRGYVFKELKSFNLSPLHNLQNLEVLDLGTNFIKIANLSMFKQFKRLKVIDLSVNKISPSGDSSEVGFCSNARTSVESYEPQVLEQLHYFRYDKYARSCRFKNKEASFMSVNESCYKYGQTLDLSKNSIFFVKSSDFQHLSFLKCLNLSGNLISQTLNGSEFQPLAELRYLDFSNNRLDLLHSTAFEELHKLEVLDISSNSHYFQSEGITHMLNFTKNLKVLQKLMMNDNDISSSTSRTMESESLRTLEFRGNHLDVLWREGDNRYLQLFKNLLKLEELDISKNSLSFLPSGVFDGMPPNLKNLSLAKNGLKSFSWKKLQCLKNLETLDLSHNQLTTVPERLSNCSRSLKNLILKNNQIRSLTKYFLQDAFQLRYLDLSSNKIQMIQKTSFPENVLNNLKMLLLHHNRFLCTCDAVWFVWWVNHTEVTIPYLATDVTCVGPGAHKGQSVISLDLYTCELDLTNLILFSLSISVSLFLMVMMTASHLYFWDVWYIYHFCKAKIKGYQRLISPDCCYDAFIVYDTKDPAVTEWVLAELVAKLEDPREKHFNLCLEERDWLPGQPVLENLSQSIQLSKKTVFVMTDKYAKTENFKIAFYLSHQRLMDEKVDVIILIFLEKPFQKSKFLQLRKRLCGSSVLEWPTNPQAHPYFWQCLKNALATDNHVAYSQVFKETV
Test: HEK293-Blue-hTLR-7 cells assay
Settings: HEK293-Blue-hTLR7 cells, R848 stimulation, 20 hrs, SEAP reporter; read-out: HEK/hTLR7 IC50
property measured: IC50 (nM)

- C[C@@H]1CN(c2ccc(C#N)c3ncccc23)C[C@H](CN2CC(n3ncc4c3CCNC4)C2)O1 [Example 1]: 10
- C[C@@H]1CN(c2ccc(C#N)c3ncccc23)C[C@H](CN2CCC(n3cc4c(n3)CCNC4)CC2)O1 [Example 36]: 18
- Cc1nn(C2CN(C[C@H]3CN(c4ccc(C#N)c5ncccc45)C[C@@H](C)O3)C2)c2c1CN(C)CC2 [Example 14]: 26
- Cc1c2c(nn1C1CN(C[C@H]3CN(c4ccc(C#N)c5ncccc45)C[C@@H](C)O3)C1)CNCC2 [Example 43]: 17
- C[C@@H]1CN(c2ccc(C#N)c3ncccc23)C[C@H](CN2CC(n3cc4c(n3)CNCC4)C2)O1 [Example 4]: 9

###

Biological target: human TLR7 (Homo sapiens)
Experiment: HEK293-Blue-hTLR-7 cells assay
Settings: HEK293-Blue-hTLR7 cells, R848 stimulation, 20 hrs, SEAP reporter; read-out: HEK/hTLR7 IC50
The entries below are paired with their reported IC50.
property measured: IC50 (nM)

- C[C@@H]1CN(c2ccc(C#N)c3ncccc23)C[C@H](CN2CC(n3cc4c(n3)[C@H](C)CNC4)C2)O1 (single isomer, unassigned): 4
- C[C@@H]1CN(c2ccc(C#N)c3ncccc23)C[C@H](CN2CC(n3cc4c(n3)[C@@H](C)NCC4)C2)O1 (single isomer, unassigned): 7
- C[C@@H]1CN(c2ccc(C#N)c3ncccc23)C[C@H](CN2CC(n3ncc4c3CN[C@@H](C)C4)C2)O1 (single isomer, unassigned): 6
- C[C@@H]1CN(c2ccc(C#N)c3ncccc23)C[C@H](CN2CC(n3ncc4c3CCN[C@@H]4C)C2)O1: 5

###

Molecular target: human TLR8 (Homo sapiens, UniProt Q9NR97)
Sequence (Q9NR97 27-1041): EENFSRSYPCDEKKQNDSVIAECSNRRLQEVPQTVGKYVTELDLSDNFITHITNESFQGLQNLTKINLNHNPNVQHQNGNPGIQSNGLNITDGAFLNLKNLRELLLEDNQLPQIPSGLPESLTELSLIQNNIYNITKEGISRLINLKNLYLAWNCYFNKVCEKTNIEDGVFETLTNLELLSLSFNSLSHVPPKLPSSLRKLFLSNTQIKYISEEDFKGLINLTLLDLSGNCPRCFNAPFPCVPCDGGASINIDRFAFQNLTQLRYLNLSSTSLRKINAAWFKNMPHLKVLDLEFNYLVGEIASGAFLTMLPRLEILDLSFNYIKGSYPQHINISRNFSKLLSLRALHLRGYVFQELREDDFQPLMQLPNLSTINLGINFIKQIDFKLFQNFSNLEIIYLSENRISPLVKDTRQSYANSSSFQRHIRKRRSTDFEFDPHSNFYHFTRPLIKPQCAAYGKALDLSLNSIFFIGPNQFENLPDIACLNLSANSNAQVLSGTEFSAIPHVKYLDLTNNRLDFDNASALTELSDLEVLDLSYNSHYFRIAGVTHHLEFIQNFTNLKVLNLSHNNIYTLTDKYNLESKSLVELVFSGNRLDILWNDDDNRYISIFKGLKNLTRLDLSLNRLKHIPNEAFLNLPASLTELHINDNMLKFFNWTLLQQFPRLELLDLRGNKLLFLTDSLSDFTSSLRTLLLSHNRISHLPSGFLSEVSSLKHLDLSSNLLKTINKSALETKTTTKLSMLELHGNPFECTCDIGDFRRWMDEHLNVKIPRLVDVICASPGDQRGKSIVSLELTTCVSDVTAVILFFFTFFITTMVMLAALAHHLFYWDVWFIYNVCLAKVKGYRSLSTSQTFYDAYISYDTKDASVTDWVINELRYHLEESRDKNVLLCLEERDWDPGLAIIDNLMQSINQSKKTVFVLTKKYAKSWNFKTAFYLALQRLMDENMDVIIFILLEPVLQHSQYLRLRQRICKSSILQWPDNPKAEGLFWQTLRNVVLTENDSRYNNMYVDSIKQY
Assay: HEK293-Blue-hTLR-8 cells assay
Details: HEK293-Blue-hTLR8 cells, R848 stimulation, 20 hrs, SEAP reporter; read-out: HEK/hTLR8 IC50
property measured: IC50 (nM)

- C[C@@H]1CN(c2ccc(C#N)c3ncccc23)C[C@H](CN2CC(n3ncc4c3CNC4)C2)O1: 19
- C[C@@H]1Cc2cn(C3CN(C[C@H]4CN(c5ccc(C#N)c6ncccc56)C[C@@H](C)O4)C3)nc2CN1 (single isomer, unassigned): 14
- C[C@@H]1CN(c2ccc(C#N)c3ncccc23)C[C@H](CN2CC(n3cc4c(n3)CNCC4)C2)O1: 9
- C[C@@H]1CN(c2ccc(C#N)c3ncccc23)C[C@H](CN2CC(n3cc4c(n3)[C@@H](C)CNC4)C2)O1 (single isomer, unassigned): 12
- Cc1nn(C2CN(C[C@H]3CN(c4ccc(C#N)c5ncccc45)C[C@@H](C)O3)C2)c2c1CNCC2: 44
- C[C@@H]1CN(c2ccc(C#N)c3ncccc23)C[C@H](CN2CC(n3ncc4c3CN[C@@H](C)C4)C2)O1 (single isomer, unassigned): 8
- C[C@@H]1CN(c2ccc(C#N)c3ncccc23)C[C@H](CN2CC(n3ncc4c3[C@@H](C)NCC4)C2)O1 (single isomer, unassigned): 5
